The reported measurements were obtained from patent US20030225152A1.

# System Tested: cytoplasmic domain of the human VEGF receptor (VEGFR-2) (Homo sapiens)
# Construct: The cytoplasmic domain of the human VEGF receptor (VEGFR-2) was expressed as a Histidine-tagged fusion protein; Histidine tag
# Sequence (P35968 786-1356): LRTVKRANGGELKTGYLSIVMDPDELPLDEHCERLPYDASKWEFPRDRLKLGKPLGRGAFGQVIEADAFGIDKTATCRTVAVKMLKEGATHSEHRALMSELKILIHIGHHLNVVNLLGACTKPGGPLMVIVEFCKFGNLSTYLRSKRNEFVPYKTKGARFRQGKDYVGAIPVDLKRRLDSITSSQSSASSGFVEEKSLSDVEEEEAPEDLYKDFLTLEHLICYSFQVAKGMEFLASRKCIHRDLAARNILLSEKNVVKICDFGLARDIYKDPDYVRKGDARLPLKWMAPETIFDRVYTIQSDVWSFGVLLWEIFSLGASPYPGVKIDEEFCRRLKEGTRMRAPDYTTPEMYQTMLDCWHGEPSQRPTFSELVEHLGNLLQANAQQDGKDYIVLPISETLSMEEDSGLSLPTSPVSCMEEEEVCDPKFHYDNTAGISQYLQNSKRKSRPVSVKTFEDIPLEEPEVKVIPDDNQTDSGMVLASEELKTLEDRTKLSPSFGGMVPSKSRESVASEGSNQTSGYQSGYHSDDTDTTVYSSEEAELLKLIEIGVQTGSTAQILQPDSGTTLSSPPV
# Assay Remarks: KDR Assay
# Experimental Context: His-VEGFR-2; 3.6 μM ATP
The entries below come with measured pIC50 values attached.
Hey, just a heads up that pIC50 is the negative log base 10 of the concentration in molar.

These recorded examples may help you get a feel for the data.
[[record]]
compound = "O=C1Nc2ccccc2C1=CNc1ccc2[nH]ncc2c1"
observed_property = "pIC50"
value_observed = 6.22

[[record]]
compound = "Cc1cccc2c1C(=CNc1ccc(OCCCN3CCCCC3)cc1)C(=O)N2"
observed_property = "pIC50"
value_observed = 7.22

[[record]]
compound = "O=C1Nc2ccc(Cl)cc2C1=CNc1ccc(N2CCOCC2)cc1"
observed_property = "pIC50"
value_observed = 6.64

[[record]]
compound = "O=C1Nc2ccc(Cl)cc2C1=CNc1ccc(CN2CCCCC2)cc1"
observed_property = "pIC50"
value_observed = 6.52

[[record]]
compound = "O=C1Nc2ccc(Cl)cc2C1=CNc1ccc(OCCN2CCCC2)cc1"
observed_property = "pIC50"
value_observed = 6.89


Request: Form: Entry = O=C(O)Cc1cccc(NC=C2C(=O)Nc3ccccc32)c1 | System = cytoplasmic domain of the human VEGF receptor (VEGFR-2) (Homo sapiens) | pIC50 = ____
Result: 6.72

Request: Cool, now CC(O)c1ccc(NC=C2C(=O)Nc3ccc(Cl)cc32)cc1 (stereo not shown)
Result: 6.37

Request: Cool, now Cc1cccc2c1C(=CNc1ccccc1)C(=O)N2
Result: 6.44

Request: Cool, now O=C1Nc2ccc(Cl)cc2C1=CNc1ccc(OCCCN2CCCCC2)cc1
Result: 6.89

Request: Cool, now O=C1Nc2ccccc2C1=CNc1cccc(O)c1
Result: 6.04

---

# System Tested: cytoplasmic domain of the human VEGF receptor (VEGFR-2) (Homo sapiens)
# Construct: The cytoplasmic domain of the human VEGF receptor (VEGFR-2) was expressed as a Histidine-tagged fusion protein; Histidine tag
# Assay Remarks: KDR Assay
# Experimental Context: His-VEGFR-2; 3.6 μM ATP
Observed Property: pIC50
Hey, just a heads up that pIC50 is the negative log base 10 of the concentration in molar.

[[record]]
molecule = "CCN(CC)CCOc1ccc(NC=C2C(=O)Nc3cccc(C)c32)cc1"
value_observed = 7.15

[[record]]
molecule = "O=C(O)Cc1ccc(NC=C2C(=O)Nc3ccc(Cl)cc32)cc1"
value_observed = 6.33

[[record]]
molecule = "Cc1cccc2c1C(=CNc1ccc(CCN3CCOCC3)cc1)C(=O)N2"
value_observed = 6.92

[[record]]
molecule = "O=C1Nc2ccc(Cl)cc2C1=CNc1ccc2[nH]ccc2c1"
value_observed = 6.24

[[record]]
molecule = "Cc1cccc2c1C(=CNc1ccc(CCCC(=O)O)cc1)C(=O)N2"
value_observed = 6.40


From here, focus on the item given below.
Request: Could you tell me which pIC50 is on file for O=C1Nc2cccc(F)c2C1=CNc1ccc(CN2CCOCC2)cc1 ?
Result: 6.33

---

# Tested on: VEGF-induced EBD extravasation
# Assay Remarks: VEGF-induced Dermal Extravasation in Guinea Pig (Miles Assay)
# Assay type: in vivo
# Experimental Context: 75 mg/kg, corn oil, oral
The entries below come with measured Miles Assay % inhibition values attached.
Just the number in %, nothing appended.

These recorded examples may help you get a feel for the data.
[[record]]
smiles = "CN1CCN(CCCCOc2ccc(NC=C3C(=O)Nc4ccccc43)cc2)CC1"
observed_property = "Miles Assay % inhibition"
value_observed = 32

[[record]]
smiles = "O=C1Nc2ccccc2C1=CNc1ccc(N2CCOCC2)cc1"
observed_property = "Miles Assay % inhibition"
value_observed = 47

[[record]]
smiles = "CCN(CC)CCCOc1ccc(NC=C2C(=O)Nc3ccccc32)cc1"
observed_property = "Miles Assay % inhibition"
value_observed = 78


Request: Could you tell me which Miles Assay % inhibition is on file for O=C1Nc2ccccc2C1=CNc1ccc(OCCCN2CCCCC2)cc1 ?
Result: 97

Request: Cool, now CCN(CC)CCCOc1ccc(NC=C2C(=O)Nc3cccc(C)c32)cc1
Result: 93
